target: rhodesain (Trypanosoma brucei rhodesiense, UniProt Q95PM0); construct: made in house; host or cells: Pichia pastoris; assay: biochemical; format: biochemical; details: final complex; Dixon fit of vS vs [I]; read-out: Rhod. Ki^* Method 2
Sequence (Q95PM0 entry or part of it): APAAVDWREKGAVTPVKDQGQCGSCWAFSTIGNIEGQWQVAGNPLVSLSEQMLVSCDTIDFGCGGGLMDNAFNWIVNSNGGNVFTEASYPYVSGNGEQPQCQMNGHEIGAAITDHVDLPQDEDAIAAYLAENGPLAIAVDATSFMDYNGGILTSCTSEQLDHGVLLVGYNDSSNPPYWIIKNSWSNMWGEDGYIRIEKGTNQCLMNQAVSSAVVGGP
Assign Ki to each entry below.
Give bare numbers, in nM.

Count: 2. Required value per item: Ki.
1. CC(C)C[C@H](NC(=O)[C@H](Cc1ccccc1)NC1=C(Cl)C(=O)c2ccccc2C1=O)C(=O)O
2. CC(C)C[C@H](NC(=O)[C@H](Cc1ccccc1)NC1=C(C#N)C(=O)c2ccccc2C1=O)C(=O)O

36
0.2

----------
biological target: rhodesain (Trypanosoma brucei rhodesiense, UniProt Q95PM0); construct: made in house; host or cells: Pichia pastoris; assay: biochemical; assay type: biochemical; conditions: initial non-covalent complex; from kobs vs [I]; read-out: Rhod. Ki Method 1
recordedMetric: Ki (nM)
Give bare numbers, in nM.

CC(C)C[C@H](NC(=O)[C@H](Cc1ccccc1)NC1=C(Cl)C(=O)c2ccccc2C1=O)C(=O)O | 57

// switching to the query compound
Notebook entry, rhodesain (Trypanosoma brucei rhodesiense, UniProt Q95PM0) assay: Ki of CC(C)C[C@H](NC(=O)[C@H](Cc1ccccc1)NC1=C(C#N)C(=O)c2ccccc2C1=O)C(=O)O = ?
0.47
